biological target: Retinoic acid receptor RXR-alpha (Homo sapiens, UniProt P19793); assay: Effective concentration for Retinoid X receptor alpha activity in CV-1 cells; Partial agonist; type: functional, cell-based
REPORTED ENDPOINT: EC50 (nM)

(a) COc1cc2c(cc1C1CCCc3oc(/C=C/C(=O)O)cc31)C(C)(C)CCC2(C)C (configuration not stated)
(b) CCCOc1cc2c(cc1C1CCCc3oc(/C=C/C(=O)O)cc31)C(C)(C)CCC2(C)C (configuration not stated)
Hi there! Just curious which has the higher EC50 between a and b . Field: selected label. Fill in the label of the entry you choose.
b

----------
Protein target, amino acids: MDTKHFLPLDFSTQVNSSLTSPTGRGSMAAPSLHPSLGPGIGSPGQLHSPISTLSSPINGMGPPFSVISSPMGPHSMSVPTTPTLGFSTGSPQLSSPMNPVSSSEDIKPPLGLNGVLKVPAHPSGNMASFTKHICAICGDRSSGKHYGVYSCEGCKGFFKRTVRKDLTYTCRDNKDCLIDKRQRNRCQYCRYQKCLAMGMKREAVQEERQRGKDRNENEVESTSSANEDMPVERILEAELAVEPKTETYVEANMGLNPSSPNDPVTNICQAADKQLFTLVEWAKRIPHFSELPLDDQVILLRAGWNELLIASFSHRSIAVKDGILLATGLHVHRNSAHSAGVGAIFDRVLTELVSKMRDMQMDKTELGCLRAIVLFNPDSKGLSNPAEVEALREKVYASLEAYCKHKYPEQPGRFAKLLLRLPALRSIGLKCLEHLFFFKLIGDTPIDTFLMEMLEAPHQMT
pKi: −log10 of the molar value.
REPORTED ENDPOINT: pKi

Some compounds with known pKi results, for comparison:
>>> val("CC1(C)CCC(C)(C)c2cc(C3CCCc4oc(/C=C/C(=O)O)cc43)ccc21 (stereo in doubt)")
8.30
>>> val("CC1(C)CCC(C)(C)c2cc(Cc3coc(/C=C/C(=O)O)c3)ccc21")
6.86
>>> val("COc1cc2c(cc1C1CCCc3oc(/C=C/C(=O)O)cc31)C(C)(C)CCC2(C)C (stereo not drawn)")
7.70
>>> val("CC1(C)CCC(C)(C)c2cc(C3CCCc4oc(/C=C/C(=O)O)cc43)ccc21 (racemic)")
8.22
>>> val("Cc1oc(/C=C/C(=O)O)cc1Cc1ccc2c(c1)C(C)(C)CCC2(C)C")
6.80
>>> val("CC1(C)CCC(C)(C)c2cc(C3CCCc4sc(CCC(=O)O)cc43)ccc21 (stereo not drawn)")
6.70
>>> val("CC1(C)CCC(C)(C)c2cc(C3CCCc4oc(/C=C/C(=O)O)cc43)ccc21 (single isomer, unassigned)")
6.70
>>> val("CC1(C)CCC(C)(C)c2cc(C3CCCc4oc(/C=C/C(=O)O)cc43)ccc21 (stereo in doubt; 60)")
7.05

(A) CC(=CC(=O)O)c1cc2c(o1)CCCC2c1ccc2c(c1)C(C)(C)CCC2(C)C (stereo not drawn)
(B) CC1(C)CCC(C)(C)c2cc(C3CCCc4sc(/C=C/C(=O)O)cc43)ccc21 (stereo not drawn)
Hi there! Just curious which has the higher pKi between A and B . Field: selected label. Fill in the label of the entry you choose.
B

(P) CC1(C)CCC(C)(C)c2cc(C3CCCc4oc(/C=C/C(=O)O)nc43)ccc21 (stereo not drawn)
(Q) CC1(C)CCC(C)(C)c2cc(C3CCCc4oc(/C=C5/SC(=O)NC5=O)cc43)ccc21 (stereo not drawn)
Hi there! Just curious which has the higher pKi between P and Q . Field: selected label. Fill in the label of the entry you choose.
Q
